Assay: Chemical stability in MES buffer assessed as compound remaining at 37 degC up to 2 hrs by HPLC analysis
Type: physicochemical
Conditions: read-out: Stability
Observable: remaining at 2 h (%)
One number for each entry, in %.

CC(C)[C@H](N)C(=O)N[C@H](C(=O)OCCOC(=O)[C@]12CCC(C)(C)C[C@H]1C1=CC[C@@H]3[C@@]4(C)CC[C@H](OC(=O)CO[N+](=O)[O-])C(C)(C)[C@@H]4CC[C@@]3(C)[C@]1(C)CC2)C(C)C.Cl | 100

Now look at this one.
State its remaining at 2 h for this molecule: CC(C)[C@H](N)C(=O)OCCOC(=O)[C@]12CCC(C)(C)C[C@H]1C1=CC[C@@H]3[C@@]4(C)CC[C@H](OC(=O)CO[N+](=O)[O-])C(C)(C)[C@@H]4CC[C@@]3(C)[C@]1(C)CC2.Cl
100

* * *

Assay: Cytotoxicity against human LO2 cells assessed as cell survival at 50 uM after 48 hrs by CCK-8 assay relative to control
Type: cell-based, L02
Conditions: read-out: Survival
Kindly supply the reported viability at 48 h, 50 µM values for the records listed here.
Give bare numbers, in %.

CC(C)[C@H](N)C(=O)OCCOC(=O)[C@]12CCC(C)(C)C[C@H]1C1=CC[C@@H]3[C@@]4(C)CC[C@H](OC(=O)CO[N+](=O)[O-])C(C)(C)[C@@H]4CC[C@@]3(C)[C@]1(C)CC2.Cl | 60

Consider the additional compound presented here.
Fill in viability at 48 h, 50 µM for record CC(C)[C@H](N)C(=O)N[C@H](C(=O)OCCOC(=O)[C@]12CCC(C)(C)C[C@H]1C1=CC[C@@H]3[C@@]4(C)CC[C@H](OC(=O)CO[N+](=O)[O-])C(C)(C)[C@@H]4CC[C@@]3(C)[C@]1(C)CC2)C(C)C.Cl
60

* * *

Tested on: PepT1
Assay: Effective permeability in Sprague-Dawley rat single-pass intestinal perfusion model assessed as PepT1-mediated drug transport at 0.1 mM administered in HEPES buffer at pH 7.4 via PVC tubing after 20 to 120 mins by HPLC analysis
Assay type: ADME, organism-based
Settings: other: intestinal perfusion via PVC tubing, read-out: Peff
Can you tell me Papp at 100 µM for the items I'm about to list?
Answers are plain numbers, in ×10⁻⁶ cm/s.

Here is how some molecules turned out for Papp at 100 µM.
CC(C)[C@H](N)C(=O)OCCOC(=O)[C@]12CCC(C)(C)C[C@H]1C1=CC[C@@H]3[C@@]4(C)CC[C@H](OC(=O)CO[N+](=O)[O-])C(C)(C)[C@@H]4CC[C@@]3(C)[C@]1(C)CC2.Cl | 20.3
CC1(C)CC[C@]2(C(=O)O)CC[C@]3(C)C(=CC[C@@H]4[C@@]5(C)CC[C@H](O)C(C)(C)[C@@H]5CC[C@]43C)[C@@H]2C1 [OLEANOLIC_ACID] | 31.7
CC(C)[C@H](N)C(=O)N[C@H](C(=O)OCCOC(=O)[C@]12CCC(C)(C)C[C@H]1C1=CC[C@@H]3[C@@]4(C)CC[C@H](OC(=O)CO[N+](=O)[O-])C(C)(C)[C@@H]4CC[C@@]3(C)[C@]1(C)CC2)C(C)C.Cl | 23.4

Next, consider the following molecule.
Answer with reported Papp at 100 µM of CC(C)[C@H](N)C(=O)OCCOC(=O)[C@]12CCC(C)(C)C[C@H]1C1=CC[C@@H]3[C@@]4(C)CC[C@H](O)C(C)(C)[C@@H]4CC[C@@]3(C)[C@]1(C)CC2.Cl
41.5

* * *

Assay: Chemical stability in HEPES buffer assessed as compound remaining at 37 degC up to 2 hrs by HPLC analysis
Format: physicochemical
Settings: read-out: Stability
Could you please report measured remaining at 2 h for the items listed next?
Numbers only, in %.

CC(C)[C@H](N)C(=O)N[C@H](C(=O)OCCOC(=O)[C@]12CCC(C)(C)C[C@H]1C1=CC[C@@H]3[C@@]4(C)CC[C@H](OC(=O)CO[N+](=O)[O-])C(C)(C)[C@@H]4CC[C@@]3(C)[C@]1(C)CC2)C(C)C.Cl | 98.2

Field: next compound
Please report the measured remaining at 2 h for CC(C)[C@H](N)C(=O)OCCOC(=O)[C@]12CCC(C)(C)C[C@H]1C1=CC[C@@H]3[C@@]4(C)CC[C@H](OC(=O)CO[N+](=O)[O-])C(C)(C)[C@@H]4CC[C@@]3(C)[C@]1(C)CC2.Cl
98.5

* * *

System: PepT1
Assay: Effective permeability in Sprague-Dawley rat single-pass intestinal perfusion model assessed as PepT1-mediated drug transport at 0.1 mM administered in MES buffer at pH 6 via PVC tubing after 20 to 120 mins by HPLC analysis
Type: ADME, organism-based
Details: other: intestinal perfusion via PVC tubing, read-out: Peff
Can you tell me Papp at 100 µM for the items I'm about to list?
Answers are plain numbers, in ×10⁻⁶ cm/s.

Worked cases, Papp at 100 µM given:
CC(C)[C@H](N)C(=O)OCCOC(=O)[C@]12CCC(C)(C)C[C@H]1C1=CC[C@@H]3[C@@]4(C)CC[C@H](OC(=O)CO[N+](=O)[O-])C(C)(C)[C@@H]4CC[C@@]3(C)[C@]1(C)CC2.Cl | 33.2
CC(C)[C@H](N)C(=O)N[C@H](C(=O)OCCOC(=O)[C@]12CCC(C)(C)C[C@H]1C1=CC[C@@H]3[C@@]4(C)CC[C@H](OC(=O)CO[N+](=O)[O-])C(C)(C)[C@@H]4CC[C@@]3(C)[C@]1(C)CC2)C(C)C.Cl | 46

Field: next compound
Return reported Papp at 100 µM. Input compound: CC1(C)CC[C@]2(C(=O)O)CC[C@]3(C)C(=CC[C@@H]4[C@@]5(C)CC[C@H](O)C(C)(C)[C@@H]5CC[C@]43C)[C@@H]2C1
31.6

* * *

Task for the reader: assign each of the following molecules its reported solubility thermodynamic at 24 h.
Assay: Aqueous equilibrium solubility of the compound after 24 hrs by HPLC analysis
Assay type: physicochemical
Conditions: water (aqueous)
Give bare numbers, in µg/mL.

Record excerpt, results attached:
CC(C)[C@H](N)C(=O)OCCOC(=O)[C@]12CCC(C)(C)C[C@H]1C1=CC[C@@H]3[C@@]4(C)CC[C@H](O)C(C)(C)[C@@H]4CC[C@@]3(C)[C@]1(C)CC2.Cl | 25.2
CC(C)[C@H](N)C(=O)N[C@H](C(=O)OCCOC(=O)[C@]12CCC(C)(C)C[C@H]1C1=CC[C@@H]3[C@@]4(C)CC[C@H](OC(=O)CO[N+](=O)[O-])C(C)(C)[C@@H]4CC[C@@]3(C)[C@]1(C)CC2)C(C)C.Cl | 22.3
CC(C)[C@H](N)C(=O)OCCOC(=O)[C@]12CCC(C)(C)C[C@H]1C1=CC[C@@H]3[C@@]4(C)CC[C@H](OC(=O)CO[N+](=O)[O-])C(C)(C)[C@@H]4CC[C@@]3(C)[C@]1(C)CC2.Cl | 18.6

Please examine the following record next.
Fill in reported solubility thermodynamic at 24 h for this entry: CC1(C)CC[C@]2(C(=O)O)CC[C@]3(C)C(=CC[C@@H]4[C@@]5(C)CC[C@H](O)C(C)(C)[C@@H]5CC[C@]43C)[C@@H]2C1 [OLEANOLIC_ACID]
0.012

* * *

Test system: PepT1
Assay: Effective permeability in Sprague-Dawley rat single-pass intestinal perfusion model assessed as PepT1-mediated drug transport at 0.1 mM administered in MES buffer at pH 6 via PVC tubing after 20 to 120 mins by HPLC analysis in presence of Gly-Sar
Format: ADME, organism-based
Details: other: intestinal perfusion via PVC tubing, pH 6, with Gly-Sar (concentration not stated), read-out: Peff
Answer each item with its documented Papp at 100 µM.

CC(C)[C@H](N)C(=O)N[C@H](C(=O)OCCOC(=O)[C@]12CCC(C)(C)C[C@H]1C1=CC[C@@H]3[C@@]4(C)CC[C@H](OC(=O)CO[N+](=O)[O-])C(C)(C)[C@@H]4CC[C@@]3(C)[C@]1(C)CC2)C(C)C.Cl | 16.3 ×10⁻⁶ cm/s

Next compound, Papp at 100 µM to be filled in.
Return reported Papp at 100 µM. Input compound: CC(C)[C@H](N)C(=O)OCCOC(=O)[C@]12CCC(C)(C)C[C@H]1C1=CC[C@@H]3[C@@]4(C)CC[C@H](OC(=O)CO[N+](=O)[O-])C(C)(C)[C@@H]4CC[C@@]3(C)[C@]1(C)CC2.Cl
25.3 ×10⁻⁶ cm/s
